- assay_protocol: clinical
- settings: human, plasma, intravenous, Weight-Adjusted Vd, Geometric Mean (individual Bayesian estimates), Including Additional 11 Subjects; 6 y-<17 y (n = 29)
recorded_endpoint: Vd (L/kg)
Response body: numeric value in L/kg, unit text excluded.

Name the recorded Vd for `Cc1cccc([C@H](C)c2cnc[nH]2)c1C` . 1.68

----------
- assay_protocol: clinical
- settings: human, plasma, intravenous, Weight-adjusted CL Mean, Dose Level 2, LD 0.50/CD 0.4 μg/kg/hr; full evaluable population
recorded_endpoint: clearance (mL/min/kg)
Provide the reading as a plain figure in mL/min/kg.

// lookup clearance for `Cc1cccc([C@H](C)c2cnc[nH]2)c1C` 15.7
